Sourced from patent US20170137512A1

Target: T1, cyno Kv1.3 (Macaca fascicularis, UniProt P22001 1-575 (human entry))
T1 chain: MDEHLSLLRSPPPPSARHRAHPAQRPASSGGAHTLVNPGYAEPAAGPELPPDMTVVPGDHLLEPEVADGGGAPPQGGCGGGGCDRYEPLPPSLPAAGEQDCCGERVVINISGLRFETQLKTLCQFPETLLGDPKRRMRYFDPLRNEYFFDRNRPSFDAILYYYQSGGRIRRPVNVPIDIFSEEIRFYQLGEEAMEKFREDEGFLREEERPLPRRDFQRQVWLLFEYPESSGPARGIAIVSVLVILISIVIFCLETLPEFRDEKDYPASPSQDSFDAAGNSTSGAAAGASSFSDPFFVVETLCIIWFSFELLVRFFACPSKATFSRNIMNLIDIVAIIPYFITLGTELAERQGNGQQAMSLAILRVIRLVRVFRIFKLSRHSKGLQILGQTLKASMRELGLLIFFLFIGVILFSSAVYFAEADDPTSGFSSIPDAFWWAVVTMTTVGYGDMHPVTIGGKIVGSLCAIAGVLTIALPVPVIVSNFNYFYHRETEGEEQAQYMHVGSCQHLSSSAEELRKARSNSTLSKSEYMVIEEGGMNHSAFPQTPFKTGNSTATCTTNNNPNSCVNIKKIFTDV
metric.name: IC50 (nM)
# value in nM; strip the unit string

The recorded IC50 for entry A019400013 (VHH, Bivalent Nanobody construct (family 12 - family 12), without Alb11; also called A0194009G09-35GS-A0194009G09) EVQLVESGGGLVQAGGSLGLSCSASGLLFSRNSAGWYRQAPGKQREFVARIRMGGSINYADTVKGRFTISRDNAKNTVYLQMNSLKPEDTAVYYCSSWRTGFYEYWGQGTLVTVSSGGGGSGGGGSGGGGSGGGGSGGGGSGGGGSGGGGSEVQLVESGGGLVQAGGSLGLSCSASGLLFSRNSAGWYRQAPGKQREFVARIRMGGSINYADTVKGRFTISRDNAKNTVYLQMNSLKPEDTAVYYCSSWRTGFYEYWGQGTLVTVSS equals 0.66

The recorded IC50 for entry A019400014 (other, Biparatopic Nanobody construct (family 1 - family 12); also called A019400003-35GS-A0194009G09; A019400011) EVQLVESGGGLVQAGGSLSLSCTASGGTFRNFGMGWFRQAQGKEREFVAAISRTGGHTYYQDSVKGRFTISKDNAKNILSLQMNSLKPEDTAVYYCAARFRFGDGTYYYQRAFYDFWGQGTLVTVSSGGGGSGGGGSGGGGSGGGGSGGGGSGGGGSGGGGSEVQLVESGGGLVQAGGSLGLSCSASGLLFSRNSAGWYRQAPGKQREFVARIRMGGSINYADTVKGRFTISRDNAKNTVYLQMNSLKPEDTAVYYCSSWRTGFYEYWGQGTLVTVSS equals 0.61

The recorded IC50 for entry A019400004 (other, Bivalent Nanobody construct (family 1 - family 1), expressed in Pichia; also called A019400003-40GS-A019400003) EVQLVESGGGLVQAGGSLSLSCTASGGTFRNFGMGWFRQAQGKEREFVAAISRTGGHTYYQDSVKGRFTISKDNAKNILSLQMNSLKPEDTAVYYCAARFRFGDGTYYYQRAFYDFWGQGTQVTVSSGGGGSGGGGSGGGGSGGGGSGGGGSGGGGSGGGGSGGGGSEVQLVESGGGLVQAGGSLSLSCTASGGTFRNFGMGWFRQAQGKEREFVAAISRTGGHTYYQDSVKGRFTISKDNAKNILSLQMNSLKPEDTAVYYCAARFRFGDGTYYYQRAFYDFWGQGTQVTVSS equals 0.64
